Below, each entry is listed alongside its reported pIC50.
ASSAY SYSTEM: human PDE4D3 (Homo sapiens)
Construct: His6 (C); made in house; host or cells: insect cells (baculovirus, pFastBac)
Sequence (Q08499 186-808): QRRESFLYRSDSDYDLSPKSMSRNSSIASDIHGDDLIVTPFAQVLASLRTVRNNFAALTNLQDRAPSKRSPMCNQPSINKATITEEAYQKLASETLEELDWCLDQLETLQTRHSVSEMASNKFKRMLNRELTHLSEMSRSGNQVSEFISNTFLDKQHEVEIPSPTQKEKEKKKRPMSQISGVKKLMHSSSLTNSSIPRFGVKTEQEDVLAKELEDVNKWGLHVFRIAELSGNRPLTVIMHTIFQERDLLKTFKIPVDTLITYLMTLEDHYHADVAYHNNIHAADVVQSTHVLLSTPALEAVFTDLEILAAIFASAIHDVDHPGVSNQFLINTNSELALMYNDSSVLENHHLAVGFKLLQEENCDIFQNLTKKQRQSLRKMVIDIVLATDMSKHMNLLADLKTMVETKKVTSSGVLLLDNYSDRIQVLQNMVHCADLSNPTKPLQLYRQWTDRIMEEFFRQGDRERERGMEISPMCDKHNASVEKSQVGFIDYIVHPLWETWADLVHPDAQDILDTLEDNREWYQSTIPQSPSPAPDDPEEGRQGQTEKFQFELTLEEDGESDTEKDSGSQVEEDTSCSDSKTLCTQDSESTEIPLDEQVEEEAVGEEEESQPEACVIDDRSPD
ASSAY METHOD TEXT: PDE4D3 Scintillation Proximity Assay (SPA), inhibition of enzyme activity
Format: biochemical
STATED CONDITIONS: geometric mean of 2-7 determinations unless otherwise indicated (b: ≥8 determinations; c: single determination); 1 μM cAMP, 30 min at 25° C.; read-out: Human PDE4D FL; IC50
Where a name gives a salt, the structure may show the parent alone.
In textbook form, pIC50 equals minus log to base ten of the concentration in mol/L.

{"columns": ["MOLECULE", "QUANTITATIVE RESULT"],
 "data": [
  ["Cc1cc(Cl)ccc1-c1c(C(=O)N2CCC2)nn2cccnc12", 5.32],
  ["Cc1cc(Cl)c(F)cc1-c1c(C(=O)NC2CC2)nn2cccnc12", 6.55],
  ["O=C(NC1CC1)c1nn2cccnc2c1-c1ccc(Cl)c(F)c1", 6.18]
]}

Item: O=C(NC1CC1)c1nn2cccnc2c1-c1cccc(Cl)c1 [Example 31, hydrochloride salt] | System: human PDE4D3 (Homo sapiens) | pIC50: 5.67

---

Below, each entry is listed alongside its reported pIC50.
ASSAY SYSTEM: Human PDE4B1 (Homo sapiens, UniProt Q07343, S133E/S654A/S659A/S661A)
Construct: His6 (N); thrombin cleavage site (N); made in house; host or cells: insect cells (baculovirus, pFastBac)
Sequence (Q07343 122-736 S133E/S654A/S659A/S661A): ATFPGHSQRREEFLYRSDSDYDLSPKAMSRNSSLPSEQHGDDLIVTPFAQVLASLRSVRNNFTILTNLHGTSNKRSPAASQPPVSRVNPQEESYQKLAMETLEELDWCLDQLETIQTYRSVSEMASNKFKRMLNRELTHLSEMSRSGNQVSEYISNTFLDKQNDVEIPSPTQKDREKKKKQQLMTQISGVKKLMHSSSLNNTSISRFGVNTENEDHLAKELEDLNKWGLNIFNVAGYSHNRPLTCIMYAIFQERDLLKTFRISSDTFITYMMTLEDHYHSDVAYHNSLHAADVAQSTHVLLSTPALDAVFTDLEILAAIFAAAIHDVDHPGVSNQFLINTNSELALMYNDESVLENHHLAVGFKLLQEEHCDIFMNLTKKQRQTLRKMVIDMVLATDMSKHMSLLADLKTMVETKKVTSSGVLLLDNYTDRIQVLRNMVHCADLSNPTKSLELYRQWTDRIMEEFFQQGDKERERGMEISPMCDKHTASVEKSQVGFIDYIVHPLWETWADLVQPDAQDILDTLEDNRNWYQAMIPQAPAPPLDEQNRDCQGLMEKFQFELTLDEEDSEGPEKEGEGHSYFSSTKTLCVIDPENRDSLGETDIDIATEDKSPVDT
ASSAY METHOD TEXT: PDE4B1 Scintillation Proximity Assay (SPA), inhibition of enzyme activity
Format: biochemical
STATED CONDITIONS: geometric mean of 2-7 determinations unless otherwise indicated (b: ≥8 determinations; c: single determination); 1 μM cAMP, 30 min at 25° C.; read-out: Human PDE4B FL; IC50
Counter-ions that a name gives are not always drawn.
In textbook form, pIC50 equals minus log to base ten of the concentration in mol/L.

{"columns": ["COMPOUND", "ASSAY SYSTEM", "QUANTITATIVE RESULT"],
 "data": [
  ["Cc1cc(Cl)c(F)cc1-c1c(C(=O)NC(C)C)nn2cccnc12", "Human PDE4B1 (Homo sapiens, UniProt Q07343, S133E/S654A/S659A/S661A)", 7.61],
  ["O=C(NC1CC1)c1nn2cccnc2c1-c1cc(F)c(Cl)c(F)c1 [Example 33, hydrochloride salt]", "Human PDE4B1 (Homo sapiens, UniProt Q07343, S133E/S654A/S659A/S661A)", 8.48],
  ["O=C(NC1CC1)c1nn2cccnc2c1-c1ccnc(OC(F)F)c1 [Example 38, formate salt]", "Human PDE4B1 (Homo sapiens, UniProt Q07343, S133E/S654A/S659A/S661A)", 7.29],
  ["Cc1cc(C#N)c(F)cc1-c1c(C(=O)N2CCC2)nn2cccnc12", "Human PDE4B1 (Homo sapiens, UniProt Q07343, S133E/S654A/S659A/S661A)", 7.76],
  ["O=C(Nc1nn2cccnc2c1-c1ccc(Cl)c(F)c1)c1ccccc1", "Human PDE4B1 (Homo sapiens, UniProt Q07343, S133E/S654A/S659A/S661A)", 5.66]
]}

From here, focus on the item given below.
pIC50 reported for this compound "O=C(c1nn2cccnc2c1-c1cc(F)c(Cl)cc1F)N1CCC1" : 7.20

---

ASSAY SYSTEM: human PDE4D3 (Homo sapiens)
Construct: His6 (C); made in house; host or cells: insect cells (baculovirus, pFastBac)
ASSAY METHOD TEXT: PDE4D3 Scintillation Proximity Assay (SPA), inhibition of enzyme activity
Type: biochemical
STATED CONDITIONS: geometric mean of 2-7 determinations unless otherwise indicated (b: ≥8 determinations; c: single determination); 1 μM cAMP, 30 min at 25° C.; read-out: Human PDE4D FL; IC50
Counter-ions that a name gives are not always drawn.
Classify: Y when IC50 is strictly less than 2 µM; N when IC50 is not.

{"columns": ["MOLECULE", "GROUP LABEL"],
 "data": [
  ["N#Cc1ccc(-c2c(C(=O)N3CCC3)nn3cc(F)cnc23)cc1F [Example 68]", "Y"],
  ["N#Cc1ccc(-c2c(C(=O)NC3CC3)nn3cccnc23)cn1 [Example 44]", "N"],
  ["O=C(c1nn2cccnc2c1-c1ccnc(OC(F)F)c1)N1CCC1 [Example 37]", "Y"],
  ["CCNC(=O)c1nn2cccnc2c1-c1ccc(Cl)cc1 [Example 52]", "N"],
  ["O=C(NC1CC1)c1nn2cccnc2c1-c1ccc(Cl)c(F)c1F [Example 71]", "Y"],
  ["O=C(NC1CC1)c1nn2cccnc2c1-c1cc(F)c(Cl)c(F)c1 [Example 33, hydrochloride salt]", "Y"]
]}

Ask | Is 2 µM strictly greater than the molecule's reported IC50? molecule: O=C(NC12CC(C1)C2)c1nn2cccnc2c1-c1ccc(Cl)cc1 [Example 27]
Reply | N

Ask | Is 2 µM strictly greater than the molecule's reported IC50? molecule: CCCNC(=O)c1nn2cccnc2c1-c1ccc(Cl)cc1 [Example 2]
Reply | N

Ask | Is 2 µM strictly greater than the molecule's reported IC50? molecule: O=C(c1nn2cccnc2c1-c1cc(F)c(Cl)cc1F)N1CCC1 [Example 49]
Reply | Y

Ask | Is 2 µM strictly greater than the molecule's reported IC50? molecule: O=C(NC1CC1)c1nn2cccnc2c1-c1cc(F)c(Cl)cc1F [Example 47]
Reply | Y

Ask | Is 2 µM strictly greater than the molecule's reported IC50? molecule: CC1(NC(=O)c2nn3cccnc3c2-c2ccc(Cl)cc2)CC1 [Example 11]
Reply | N

---

ASSAY SYSTEM: Human PDE4B1 (Homo sapiens, UniProt Q07343, S133E/S654A/S659A/S661A)
Construct: His6 (N); thrombin cleavage site (N); made in house; host or cells: insect cells (baculovirus, pFastBac)
ASSAY METHOD TEXT: PDE4B1 Scintillation Proximity Assay (SPA), inhibition of enzyme activity
Assay type: biochemical
STATED CONDITIONS: geometric mean of 2-7 determinations unless otherwise indicated (b: ≥8 determinations; c: single determination); 1 μM cAMP, 30 min at 25° C.; read-out: Human PDE4B FL; IC50
Where a name gives a salt, the structure may show the parent alone.
RESULT TYPE: IC50 (nM)
Entry rule: numbers only, all in nM.

{"columns": ["COMPOUND", "ASSAY SYSTEM", "UNIT OF MEASURE", "IC50"],
 "data": [
  ["O=C(NC1CC1)c1nn2cccnc2c1-c1ccc(Cl)c(Cl)c1 [Example 32, hydrochloride salt]", "Human PDE4B1 (Homo sapiens, UniProt Q07343, S133E/S654A/S659A/S661A)", "nM", 9.98],
  ["CCNC(=O)c1nn2cccnc2c1-c1ccnc(OC(F)F)c1", "Human PDE4B1 (Homo sapiens, UniProt Q07343, S133E/S654A/S659A/S661A)", "nM", 48.3],
  ["O=C(NC1CC1)c1nn2cccnc2c1-c1ccc(Cl)c(F)c1", "Human PDE4B1 (Homo sapiens, UniProt Q07343, S133E/S654A/S659A/S661A)", "nM", 5.87],
  ["O=C(NC1CC1)c1nn2cccnc2c1-c1ccc(Cl)c(F)c1F", "Human PDE4B1 (Homo sapiens, UniProt Q07343, S133E/S654A/S659A/S661A)", "nM", 25.5]
]}

IC50 reported for this compound "N#Cc1ccc(-c2c(C(=O)NC3CC3)nn3cccnc23)cn1" : 358

IC50 reported for this compound "Cc1cc(Cl)c(F)cc1-c1c(C(=O)NC2CC2)nn2cc(F)cnc12" : 2

IC50 reported for this compound "N#Cc1cc(F)c(-c2c(C(=O)N3CCC3)nn3cccnc23)cc1F" : 54.5

IC50 reported for this compound "N#Cc1ccc(-c2c(C(=O)N3CCC3)nn3cc(F)cnc23)cc1F" : 16.8

IC50 reported for this compound O=C(NC1CC1(F)F)c1nn2cccnc2c1-c1ccc(Cl)c(F)c1 (centres unmarked) : 12.9

IC50 reported for this compound "O=C(c1nn2cccnc2c1-c1ccnc(OC(F)F)c1)N1CCC1" : 31.5

IC50 reported for this compound "O=C(NC1CC1)c1nn2cc(F)cnc2c1-c1cc(F)c(Cl)c(F)c1" : 2.71

---

Below, each entry is listed alongside its reported pIC50.
ASSAY SYSTEM: Human PDE4B1 (Homo sapiens, UniProt Q07343, S133E/S654A/S659A/S661A)
Construct: His6 (N); thrombin cleavage site (N); made in house; host or cells: insect cells (baculovirus, pFastBac)
ASSAY METHOD TEXT: PDE4B1 Scintillation Proximity Assay (SPA), inhibition of enzyme activity
Assay type: biochemical
STATED CONDITIONS: geometric mean of 2-7 determinations unless otherwise indicated (b: ≥8 determinations; c: single determination); 1 μM cAMP, 30 min at 25° C.; read-out: Human PDE4B FL; IC50
In textbook form, pIC50 equals minus log to base ten of the concentration in mol/L.

Solved entries:
{"columns": ["MOLECULE", "RESULT TYPE", "QUANTITATIVE RESULT"],
 "data": [
  ["O=C(c1nn2cccnc2c1-c1ccc(Cl)c(F)c1)N1CCC1 [Example 12]", "pIC50", 8.22],
  ["N#Cc1ccc(-c2c(C(=O)NC3CC3)nn3cccnc23)c(F)c1 [Example 76]", "pIC50", 6.35],
  ["O=C(NC1CC1)c1nn2cc(F)cnc2c1-c1ccc(Cl)cc1 [Example 7]", "pIC50", 7.79],
  ["Cc1cc(Cl)ccc1-c1c(C(=O)N2CCC2)nn2cccnc12 [Example 21]", "pIC50", 7.35]
]}

From here, focus on the item given below.
pIC50 reported for this molecule Cc1cc(C#N)c(F)cc1-c1c(C(=O)NC2CC2)nn2cccnc12 [Example 23] : 7.59
